System: K562
protocol-text: Cytotoxicity against human K562 cells after 48 hrs by MTT assay
Format: functional, cell-based
test-conditions: K562, 48 h
experimental-readout: IC50

CO[C@@H]1C=C[C@@]23c4cc5c(cc4CN(C[C@@H]2O)[C@H]3C1)OCO5 [(+)-HAEMANTHAMINE]: 2.5 µM
CN1Cc2cc3c(cc2-c2ccccc21)OCO3: > 10 µM
c1ccc2c(c1)ncc1cc3c(cc12)OCO3 [TRISPHAERIDINE]: > 10 µM
Cn1c(=O)c2cc3c(cc2c2ccccc21)OCO3: > 10 µM

Switching to the query record.
Given the molecule CO[C@H]1C=C[C@@]23c4cc5c(cc4CN(C)[C@@H]2C(=O)N(C)[C@H]3C1)OCO5 (relative stereo) , what is its reported IC50?
> 10 µM
